- assay-target: wild-type un-phosphorylated FGFR3 protein (Homo sapiens, UniProt P22607)
- Sequence (P22607 23-806): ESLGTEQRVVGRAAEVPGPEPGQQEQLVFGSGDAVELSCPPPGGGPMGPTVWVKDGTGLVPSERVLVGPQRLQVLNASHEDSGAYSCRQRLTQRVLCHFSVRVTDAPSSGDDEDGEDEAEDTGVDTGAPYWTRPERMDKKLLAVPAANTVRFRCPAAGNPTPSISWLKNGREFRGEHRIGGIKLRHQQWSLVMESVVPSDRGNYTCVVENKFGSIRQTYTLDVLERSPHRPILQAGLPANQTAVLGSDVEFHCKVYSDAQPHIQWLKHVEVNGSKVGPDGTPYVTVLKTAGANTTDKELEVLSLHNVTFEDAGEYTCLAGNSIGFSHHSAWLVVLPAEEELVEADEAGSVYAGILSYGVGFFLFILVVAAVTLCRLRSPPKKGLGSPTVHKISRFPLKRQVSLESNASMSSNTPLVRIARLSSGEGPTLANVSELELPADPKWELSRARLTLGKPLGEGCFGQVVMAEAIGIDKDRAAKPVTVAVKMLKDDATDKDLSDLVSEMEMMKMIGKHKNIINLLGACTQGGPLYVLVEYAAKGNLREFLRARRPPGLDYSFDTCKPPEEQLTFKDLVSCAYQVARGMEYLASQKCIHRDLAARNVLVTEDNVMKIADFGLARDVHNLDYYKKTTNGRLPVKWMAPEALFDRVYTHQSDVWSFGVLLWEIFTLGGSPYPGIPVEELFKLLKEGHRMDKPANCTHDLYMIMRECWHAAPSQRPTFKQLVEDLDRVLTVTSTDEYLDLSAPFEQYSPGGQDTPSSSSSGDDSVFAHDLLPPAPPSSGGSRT
pKi: −log10 of the molar value.
endpoint-label: pKi

Here's what some known entries look like.
molecule: OCc1c(-c2c(Cl)cccc2Cl)nc2c3cc(-c4cnn(C5COC5)c4)cnc3ccn12 [Example 71]
assay-target: wild-type un-phosphorylated FGFR3 protein (Homo sapiens, UniProt P22607)
result-value: > 8.00
//
molecule: COc1cc(OC)cc(-c2c(-c3ccccc3Cl)nc3c4cc(-c5cnn(C)c5)cnc4ccn23)c1 [Example 4]
assay-target: wild-type un-phosphorylated FGFR3 protein (Homo sapiens, UniProt P22607)
result-value: > 8.00
//
molecule: Cc1cc(CO)ccc1-c1nc2c3cc(-c4cnn(C)c4)cnc3ccn2c1C [Example 30]
assay-target: wild-type un-phosphorylated FGFR3 protein (Homo sapiens, UniProt P22607)
result-value: 7.00 to 8.00
//
molecule: OCCn1cc(-c2cnc3ccn4c(CO)c(-c5c(Cl)cccc5Cl)nc4c3c2)cn1 [Example 83]
assay-target: wild-type un-phosphorylated FGFR3 protein (Homo sapiens, UniProt P22607)
result-value: > 8.00

## Task Given C=CC(=O)Nc1cccc(-c2nc3c4cc(-c5cnn(C)c5)cnc4ccn3c2C)c1 [Example 35] , respond with its pKi.
## Result 7.00 to 8.00

## Task # return recorded pKi for input CC(=O)N1CC2(CCC(n3cc(-c4cnc5ccn6cc(-c7c(Cl)cccc7Cl)nc6c5c4)cn3)CC2)C1 [Example 46]
## Result > 8.00

## Task Quick one: give measured pKi for O=C(O)[C@H]1CC[C@H](n2cc(-c3cnc4ccn5c(C6CC6)c(-c6ccccc6Cl)nc5c4c3)cn2)CC1 [Example 16]
## Result > 8.00

## Task Hello, please tell me recorded pKi for this one: CN1CCC(n2cc(-c3cnc4ccn5c(CO)c(-c6c(Cl)cccc6Cl)nc5c4c3)cn2)CC1 [Example 78]
## Result > 8.00
